- System: A549 cells
- PROTOCOL_TEXT: MTT cytotoxicity assay
- Assay type: cell-based, human
- STATED_CONDITIONS: normalized to naïve control, ± SEM
The reader will find reported Cell Viability (%) 4 h Dosing values listed item by item below.
Answers without a unit are incomplete; give the number and then its unit.

[[record]]
smiles_string = "NCCCNC(=O)[C@H](Cc1ccccc1)NC(=O)Cc1cccc2ccccc12"
endpoint_label = "Cell Viability (%) 4 h Dosing"
result = "65.3 ± 3.7%"

[[record]]
smiles_string = "NCCCNC(=O)[C@H](Cc1ccccc1)NC(=O)Cc1ccc2ccccc2c1"
endpoint_label = "Cell Viability (%) 4 h Dosing"
result = "50.4 ± 1.5%"

[[record]]
smiles_string = "NCCCNC(=O)[C@H](Cc1c(F)c(F)c(F)c(F)c1F)NC(=O)OCC1c2ccccc2-c2ccccc21"
endpoint_label = "Cell Viability (%) 4 h Dosing"
result = "48.1 ± 5.9%"


Now look at this entry.
Consider the compound NCCCNC(=O)[C@H](Cc1cccc(F)c1)NC(=O)OCC1c2ccccc2-c2ccccc21 and give its measured Cell Viability (%) 4 h Dosing. 59.9 ± 3.8%
